Ref: PubChem BioAssay

Assay: OD615 S. cerevisiae growth inhibition, permissive medium, pilot counter-assay, permissive growth control for S. cerevisiae lifespan shortening project (AID 705)
Conditions: OD615, 24 h, at 10 µM, active compounds read high
test readout: growth inhibition (%)
Give just the numeric value; % need not be written.

Worked examples follow.
Cc1cccc(-n2ncc3c(N4CCOCC4)ncnc32)c1; 6.08
COc1ccc(-c2nc3n(n2)C(c2ccccc2Cl)C(C(N)=O)=C(C)N3)cc1 (stereo unspecified); -14.2
CCC(Sc1nc(C)cc(=O)[nH]1)C(=O)Nc1sc2c(c1C#N)CCCC2 (stereo unspecified); -14
CCOC(=O)C1=C(O)CSC1=Nc1ccc(Cl)cc1; -7.6
COc1ccccc1CNC(=O)c1ccc(CNc2c(N3CCCC3)c(=O)c2=O)cc1; 3.65

From here, focus on the item given below.
Q) Please supply the value of reported growth inhibition for the item CCOc1ccccc1N(CC(=O)Nc1ccccc1C(=O)O)S(C)(=O)=O
A) -15.5

###

# maps each entry to its viability
Test: growth suppression of PTEN-deleted HCT116, pilot screen, cell-based, HCT116 clonal line, CellTiter-Glo (AID 824);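 note: 0% = 20 µM Hyamine control and 100% = vehicle cell control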
Details: 60 h, at 10 µM, active compounds read low
Inconclusive results are not listed.
Give just the numeric value; % need not be written.

Worked examples follow.
Cc1sc2nc(SCC(=O)N3CCOCC3)[nH]c(=O)c2c1C; 92.2
CC1Cc2nc(SCC(=O)NCc3ccco3)n(-c3ccccc3)c(=O)c2S1 (stereo not drawn); 99
COc1ccc(-c2ccc(=O)n(CC(=O)N3CCN(c4ccccc4OC)CC3)n2)cc1; 92.9
Cc1nn(C)c(C)c1S(=O)(=O)N(CC(=O)Nc1ccc2c(c1)OCO2)c1ccc(C(C)C)cc1; 99.4
COCCNS(=O)(=O)c1ccc(C2CNC(=O)C2)cc1 (stereo not drawn); 104
CC(=O)Oc1ccc(C(=O)Nc2nccs2)cc1; 80.3

Q) Please supply the value of reported viability for the item O=C1c2ccccc2C(=O)N1CCCc1nc(-c2ccc(Cl)cc2)no1
A) 100

Q) Please supply the value of reported viability for the item CCn1c(-c2ccc(N)cc2)nc2ccccc21
A) 83.5

Q) Please supply the value of reported viability for the item COc1ccccc1-c1cc(C(=O)N2CCCCC2)no1
A) 93.2

Q) Please supply the value of reported viability for the item COc1ccccc1N1CCN(C(=O)c2ccc(Br)s2)CC1
A) 91.1

Q) Please supply the value of reported viability for the item CCOC(=O)N1CCN(c2ccc3nnnn3n2)CC1
A) 101

###

# maps each entry to its viability
Assay: growth suppression of PTEN-deleted HCT116, pilot screen, cell-based, HCT116 clonal line, CellTiter-Glo (AID 824);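 note: 0% = 20 µM Hyamine control and 100% = vehicle cell control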
Conditions: 60 h, at 10 µM, active compounds read low
Results filed as inconclusive are left out.
Give just the numeric value; % need not be written.

Q) Please supply the value of reported viability for the item O=C(CN1CCOCC1)Nc1cc(Cl)ccc1Cl
A) 101

Q) Please supply the value of reported viability for the item FC(F)(F)c1cccc(-c2ccc(-c3csnn3)o2)c1
A) 83.6

Q) Please supply the value of reported viability for the item Cc1ccsc1-c1nc(CSCC(=O)N2CCN(c3ccccc3)CC2)c(C)o1
A) 65.6

Q) Please supply the value of reported viability for the item O=C(CCS(=O)(=O)c1cccc2nonc12)N1CCOCC1
A) 100

Q) Please supply the value of reported viability for the item Cc1cc(C)n(-c2nc(NC(C)(C)C)nc(NC(C)(C)C)n2)n1
A) 11.2

Q) Please supply the value of reported viability for the item CCn1c2ccccc2c2cc(NC(=O)C3CCN(S(=O)(=O)c4cccs4)CC3)ccc21
A) 66.2

Q) Please supply the value of reported viability for the item CCOC(=O)c1c(NC(=O)c2cc(C3CC3)on2)sc2c1CCCC2
A) 97.5

Q) Please supply the value of reported viability for the item CCOC(=O)c1c(C)oc2cc(Br)c(OC(C)C(=O)OCC)cc12 (stereo unspecified)
A) 92

Q) Please supply the value of reported viability for the item COCC(C)NC(=O)c1cc(-c2ccc(O)cc2)on1 (stereo unspecified)
A) 100

Q) Please supply the value of reported viability for the item COc1ccc(N2CCC(CNC(=O)Nc3ccc(C)c(C)c3)C2)cc1 (stereo unspecified)
A) 74.8

Q) Please supply the value of reported viability for the item O=C(Nc1ccc(N2CCOCC2)c(Cl)c1)C1CCCCC1
A) 94.8

###

Experiment: Restrictive medium S. cerevisiae growth inhibition, OD615, pilot screen of yeast lifespan reduction project, restrictive growth control (AID 706);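 note: modified DeaD lifespan yeast strain shifted to restrictive glucose medium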
Settings: OD615, 48 h, at 10 µM, active compounds read high
test readout: growth inhibition (%)
Give just the numeric value; % need not be written.

Q) Please supply the value of reported growth inhibition for the item O=C(CSCc1ccc(Cl)cc1)c1ccco1
A) 0.15

Q) Please supply the value of reported growth inhibition for the item O=C1CC(c2nc3ccccc3[nH]2)CN1c1cccc(C(F)(F)F)c1 (stereo not drawn)
A) 4.75

Q) Please supply the value of reported growth inhibition for the item CCCCCn1c(SC(C)C(C)=O)nc2c1c(=O)[nH]c(=O)n2C (stereo not drawn)
A) -33.8

Q) Please supply the value of reported growth inhibition for the item COc1ccc(-n2c(Cc3cc(=O)[nH]c(=O)[nH]3)nnc2SCC(=O)Nc2ccccc2)cc1
A) 3.9

Q) Please supply the value of reported growth inhibition for the item COC(=O)C1(C)NC(=O)c2ccccc2N1 (stereo not drawn)
A) -7.71

Q) Please supply the value of reported growth inhibition for the item COc1ccccc1N1CCN(C(=O)CN(c2ccccc2OC)S(=O)(=O)c2ccccc2)CC1
A) -7.83

Q) Please supply the value of reported growth inhibition for the item CC(=O)N1CCc2cc(C(=O)CN3CCC(C)CC3)ccc21
A) -4.73

Q) Please supply the value of reported growth inhibition for the item CCOc1ccccc1CNS(=O)(=O)c1ccc2c(c1)oc(=O)n2C
A) -0.955

Q) Please supply the value of reported growth inhibition for the item O=C(C1CCN(S(=O)(=O)c2ccc(F)cc2)CC1)N1CCOCC1
A) -6.82

Q) Please supply the value of reported growth inhibition for the item CC(=O)Nc1ccc(S(=O)(=O)Nc2nc(C)cc(-n3nc(C)cc3C)n2)cc1
A) -6.55

Q) Please supply the value of reported growth inhibition for the item CCOC(=O)C1C(=O)CC(C)(O)C(C(=O)OCC)C1c1cccs1 (stereo not drawn)
A) -20.4

Q) Please supply the value of reported growth inhibition for the item COc1ccc(OC)c2sc(NC(=O)C3CC3)nc12
A) 5.55

Q) Please supply the value of reported growth inhibition for the item NC(=O)c1cc(Cl)cn(-c2ccccc2)c1=O
A) -5.85

Q) Please supply the value of reported growth inhibition for the item CCc1c(C)nc2[nH]nc(-c3ccccc3)n2c1=O
A) -10.2

Q) Please supply the value of reported growth inhibition for the item C=CCOC(=O)C1=C(C)N=C2SCCC(=O)N2C1c1ccc(OC(=O)c2ccco2)cc1 (stereo not drawn)
A) 24.3

Q) Please supply the value of reported growth inhibition for the item Cc1ccc(S(=O)(=O)N2C3C=CC(C3)C2C(=O)O)cc1 (stereo not drawn)
A) -3.31

Q) Please supply the value of reported growth inhibition for the item [O-]/[N+](=C/c1cccnc1)c1ccc(Br)cc1
A) -4.11

###

Experiment: Restrictive medium S. cerevisiae growth inhibition, OD615, pilot screen of yeast lifespan reduction project, restrictive growth control (AID 706);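 note: modified DeaD lifespan yeast strain shifted to restrictive glucose medium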
Details: OD615, 48 h, at 10 µM, active compounds read high
# maps each entry to its growth inhibition
Give just the numeric value; % need not be written.

Worked examples follow.
O=C(CCn1c(=O)sc2ccccc21)NCc1ccccc1; -2.52
CCN1C(=O)N(CC)C(O)(c2ccccc2)C1(O)c1ccccc1 (centres undefined); -8.41
Cc1c(NC(=O)c2ccc(F)cc2)c(=O)n(-c2ccccc2)n1C; -7.79
COc1ccc(-c2nc(C#N)c(NCCN(C)C)o2)cc1; -5.11
CNC(=O)c1cc2cc(OC)ccc2n1CCN(C)C; -16.4
Cc1ccc2cc(CCNC(=O)C3CCCC3)c(=O)[nH]c2c1; -9.72
Nc1nc(NC(=O)c2cccc(S(=O)(=O)N3CCCCCC3)c2)nc(-c2ccccc2)n1; 6.65
COCCNC(=O)CN(c1cc(C(F)(F)F)ccc1Cl)S(C)(=O)=O; 1.25

Q) Please supply the value of reported growth inhibition for the item O=C(CC1Oc2ccccc2NC1=O)NC1CCCC1 (centres undefined)
A) 2.71

Q) Please supply the value of reported growth inhibition for the item CCOC(=O)C1CCCN(Cc2nc(N)nc(Nc3ccccc3OC)n2)C1 (centres undefined)
A) -2.06

Q) Please supply the value of reported growth inhibition for the item CC1=C(C(=O)OC2CCCCC2)C(c2ccco2)n2ncnc2N1 (centres undefined)
A) 4.91

Q) Please supply the value of reported growth inhibition for the item O=C(c1ccco1)N1CCN(c2ncccn2)CC1
A) -5.72

Q) Please supply the value of reported growth inhibition for the item CCn1cc(Br)c(C(=O)Nc2ccc(F)c(Cl)c2)n1
A) -5.7

Q) Please supply the value of reported growth inhibition for the item Cc1ccc2oc(Nc3nc(C)cc(C)n3)nc2c1
A) 13.1

Q) Please supply the value of reported growth inhibition for the item CCCn1c(C2CC(=O)N(c3cc(OC)ccc3OC)C2)nc2ccccc21 (centres undefined)
A) -14.7

Q) Please supply the value of reported growth inhibition for the item COc1ccccc1C(=O)Nc1nnc(-c2ccc(F)cc2)o1
A) -13.1
